Tested on: 349418-098-R tumor spheroid viability;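 note: spheroids exposed to compound for 7 days before measurement; percent of vehicle control viability with 100% = DMSO-treated spheroids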
Experiment: Anticancer human tumor 349418-098-R patient-derived lung adenocarcinoma cell line growth inhibition
Settings: second compound 30 pM; first compound 10 µM; stronger effect = lower value; spheroids with HUVEC and MSC
Recorded viability, T/C by entry
Give the value, in units of %, as a plain number.

Check out these entries, answers already filled in.
COc1ccc([C@@H](O)c2cc(-c3ncnc4cc(N5CCOCC5)ccc34)c(F)cc2Cl)nn1 + COc1cc2c(cc1O)CCNC21CSC2c3c(OC(C)=O)c(C)c4c(c3C(COC1=O)N1C(O)C3Cc5cc(C)c(OC)c(O)c5C(C21)N3C)OCO4 :: 22.5
CC(C)n1c(=O)n(C)c2cnc3cc(F)c(-c4ccc(OCCCN5CCCCC5)nc4)cc3c21 + COc1cc2c(cc1O)CCNC21CSC2c3c(OC(C)=O)c(C)c4c(c3C(COC1=O)N1C(O)C3Cc5cc(C)c(OC)c(O)c5C(C21)N3C)OCO4 :: 77.7
Cc1cc(C)c(CNC(=O)c2cc(-c3ccc(CN4CCOCC4)cc3)cc3c2cnn3C2CCCC2)c(=O)[nH]1 + COc1cc2c(cc1O)CCNC21CSC2c3c(OC(C)=O)c(C)c4c(c3C(COC1=O)N1C(O)C3Cc5cc(C)c(OC)c(O)c5C(C21)N3C)OCO4 :: 104
[2H]c1nc(C)nc([2H])c1-c1cc(NC[C@@H](C)c2cccc3c(C(=O)NC)ccnc23)ncn1 + COc1cc2c(cc1O)CCNC21CSC2c3c(OC(C)=O)c(C)c4c(c3C(COC1=O)N1C(O)C3Cc5cc(C)c(OC)c(O)c5C(C21)N3C)OCO4 :: 105
COc1cc(C)[nH]c(=O)c1CN1CCc2c(Cl)cc(C(OC)C3COC3)c(Cl)c2C1=O (stereo unspecified) + COc1cc2c(cc1O)CCNC21CSC2c3c(OC(C)=O)c(C)c4c(c3C(COC1=O)N1C(O)C3Cc5cc(C)c(OC)c(O)c5C(C21)N3C)OCO4 :: 93.3

Record request: viability, T/C value, item CC1COCCN1c1cc(-c2ccnn2C)c2ccnc(-c3ccn[nH]3)c2n1 (stereo unspecified) + COc1cc2c(cc1O)CCNC21CSC2c3c(OC(C)=O)c(C)c4c(c3C(COC1=O)N1C(O)C3Cc5cc(C)c(OC)c(O)c5C(C21)N3C)OCO4
11.8
